- System: COLO 205
- assay_overview: Growth inhibition of human COLO205 cells after 48 hrs by sulforhodamine B assay
- Type: functional
- test_settings: COLO 205, 48 h
Listed next: entries and their corresponding GI50.
Hi! Could you send only the number? It should be in µM, unit omitted.

COc1cc(/C=C/c2cc3c(c(OC)c2)O[C@]2(C)CC[C@@H](O)C(C)(C)[C@H]2C3)cc(O)c1C/C=C(\C)CCC=C(C)C	0.562
COc1cc(/C=C/c2cc3c(c(SC)c2)O[C@]2(C)CC[C@@H](O)C(C)(C)[C@H]2C3)cc(O)c1C/C=C(\C)CCC=C(C)C	1.35
COc1cc(/C=C/c2cc(F)c3c(c2)C[C@@H]2C(C)(C)[C@H](O)CC[C@@]2(C)O3)cc(O)c1C/C=C(\C)CCC=C(C)C	12
COc1cc(/C=C/c2ccc3c(c2)C[C@@H]2C(C)(C)[C@H](O)CC[C@@]2(C)O3)cc(O)c1C/C=C(\C)CCC=C(C)C	3.63
COc1cc(/C=C/c2cc(O)c3c(c2)C[C@@H]2C(C)(C)[C@H](O)CC[C@@]2(C)O3)cc(O)c1C/C=C(\C)CCC=C(C)C	0.575

Reported GI50 for `COCOc1cc(/C=C/c2cc(C=O)c3c(c2)C[C@@H]2C(C)(C)[C@H](O)CC[C@@]2(C)O3)cc(OC)c1C/C=C(\C)CCC=C(C)C` was 3.47

Input `COCOc1cc(/C=C/c2cc(CO)c3c(c2)C[C@@H]2C(C)(C)[C@H](O)CC[C@@]2(C)O3)cc(OC)c1C/C=C(\C)CCC=C(C)C` . Output GI50: 3.55

---

- Test system: NCI-H23
- assay_overview: Growth inhibition of human NCI-H23 cells after 48 hrs by sulforhodamine B assay
- Assay type: functional
- test_settings: NCI-H23, 48 h
compounds and their reported LC50

Reference set (4 entries):
COCOc1cc(/C=C/c2cc(C=O)c3c(c2)C[C@@H]2C(C)(C)[C@H](O)CC[C@@]2(C)O3)cc(OC)c1C/C=C(\C)CCC=C(C)C	> 100 µM
COc1cc(/C=C/c2ccc3c(c2)C[C@@H]2C(C)(C)[C@H](O)CC[C@@]2(C)O3)cc(O)c1C/C=C(\C)CCC=C(C)C	60.3 µM
COc1cc(/C=C/c2cc3c(c(SC)c2)O[C@]2(C)CC[C@@H](O)C(C)(C)[C@H]2C3)cc(O)c1C/C=C(\C)CCC=C(C)C	> 100 µM
COc1cc(/C=C/c2cc3c(c(OC)c2)O[C@]2(C)CC[C@@H](O)C(C)(C)[C@H]2C3)cc(O)c1C/C=C(\C)CCC=C(C)C	26.9 µM

Value of measured LC50 for the entry `COc1cc(/C=C/c2cc(O)c3c(c2)C[C@@H]2C(C)(C)[C@H](O)CC[C@@]2(C)O3)cc(O)c1C/C=C(\C)CCC=C(C)C` : 26.3 µM

Lookup result for `COc1cc(/C=C/c2cc(F)c3c(c2)C[C@@H]2C(C)(C)[C@H](O)CC[C@@]2(C)O3)cc(O)c1C/C=C(\C)CCC=C(C)C` ; measured LC50: 20.9 µM

# LC50 (compound: `COCOc1cc(/C=C/c2cc(CO)c3c(c2)C[C@@H]2C(C)(C)[C@H](O)CC[C@@]2(C)O3)cc(OC)c1C/C=C(\C)CCC=C(C)C` ) is 74.1 µM
